- system.under.test: Bcl-2 (Homo sapiens (Human))
- protocol.notes: Time Resolved-Fluorescence Resonance Energy Transfer (TR-FRET) Bcl-2 binding assay
- condition.set: read-out: Bcl-2 FRET ki
measured.parameter: Ki (nM)
Please respond with the number in nM and leave the unit unwritten.

Q: Return reported Ki; argument: CC1(C)CCC(CN2CCN(c3ccc(C(=O)NS(=O)(=O)c4ccc(NC5CCN(C6CCOCC6)CC5)c([N+](=O)[O-])c4)c(Oc4ccc5[nH]ccc5c4)c3)CC2)=C(c2ccc(Cl)cc2)C1
A: 0.074

* * *

- system.under.test: Bcl-2 (Homo sapiens (Human), UniProt P10415)
- Sequence (P10415 whole entry): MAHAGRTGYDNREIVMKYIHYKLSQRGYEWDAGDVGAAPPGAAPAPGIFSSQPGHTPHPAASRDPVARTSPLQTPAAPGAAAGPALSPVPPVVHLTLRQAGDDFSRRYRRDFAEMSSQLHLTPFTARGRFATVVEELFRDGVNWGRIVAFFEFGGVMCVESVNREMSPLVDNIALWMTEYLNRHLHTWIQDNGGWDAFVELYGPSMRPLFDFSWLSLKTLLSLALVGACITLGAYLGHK
- protocol.notes: Time Resolved-Fluorescence Resonance Energy Transfer (TR-FRET) Bcl-2 binding assay
- condition.set: Table 5, direct comparison Z=N with corresponding analogs Z=C; read-out: Bcl-2 FRET ki
pKi: −log10 of the molar value.
measured.parameter: pKi

Q: Return reported pKi; argument: CN1CCC(Nc2ccc(S(=O)(=O)NC(=O)c3ccc(N4CCN(CC5=C(c6ccc(Cl)cc6)CC(C)(C)CC5)CC4)cc3Oc3cnc4[nH]ccc4c3)cc2[N+](=O)[O-])CC1 [Example 4]
A: > 11.00

Q: Return reported pKi; argument: CC1(C)CCC(CN2CCN(c3ccc(C(=O)NS(=O)(=O)c4ccc(NC[C@H]5CCCOC5)c([N+](=O)[O-])c4)c(Oc4cnc5[nH]ccc5c4)c3)CC2)=C(c2ccc(Cl)cc2)C1 [Example 13]
A: > 11.00

Q: Return reported pKi; argument: COCCNc1ccc(S(=O)(=O)NC(=O)c2ccc(N3CCN(CC4=C(c5ccc(Cl)cc5)CC(C)(C)CC4)CC3)cc2Oc2cnc3[nH]ccc3c2)cc1[N+](=O)[O-] [Example 10]
A: > 11.00

Q: Return reported pKi; argument: CC1(C)CCC(CN2CCN(c3ccc(C(=O)NS(=O)(=O)c4ccc(OCC5COCCO5)c([N+](=O)[O-])c4)c(Oc4cnc5[nH]ccc5c4)c3)CC2)=C(c2ccc(Cl)cc2)C1 (stereo not drawn) [Example 12]
A: > 11.00

Q: Return reported pKi; argument: CC1(C)CC(c2ccc(Cl)cc2)=C(CN2CCN(c3ccc(C(=O)NS(=O)(=O)c4ccc(NCC5CCOCC5)c([N+](=O)[O-])c4)c(Oc4cnc5[nH]ccc5c4)c3)CC2)CO1 [Example 15]
A: > 11.00

Q: Return reported pKi; argument: CC1(C)CCC(CN2CCN(c3ccc(C(=O)NS(=O)(=O)c4ccc(N[C@H]5CC[C@H](N6CCOCC6)CC5)c([N+](=O)[O-])c4)c(Oc4cnc5[nH]ccc5c4)c3)CC2)=C(c2ccc(Cl)cc2)C1 [Example 9]
A: > 11.00

* * *

- Tested on: RS4;11 cells
- protocol.notes: RS4;11 cell viability assay (CellTiter Glo)
- Type: cell-based, human
- condition.set: Homo sapiens, RS4-11, 48 h, 50,000 cells per well, 10% human serum, 48 hours; read-out: RS4; 11 EC50 Values
measured.parameter: log10 of EC50 (log10 of the value in nM)
Scale: decimal log of EC50, EC50 in nM.

Q: Lookup: log10 of EC50 / RS4;11 cells / CC(C)N1CCC2(CCC(c3ccc(Cl)cc3)=C(CN3CCN(c4ccc(C(=O)NS(=O)(=O)c5ccc(NCC6CCOCC6)c([N+](=O)[O-])c5)c(Oc5cnc6[nH]ccc6c5)c4)CC3)C2)CC1 [Example 266]
A: 0.86

Q: Lookup: log10 of EC50 / RS4;11 cells / CC1(C)CC(c2ccc(Cl)cc2)=C(CN2CCN(c3ccc(C(=O)NS(=O)(=O)c4ccc(N[C@H]5CC[C@@H](N6CCOCC6)CC5)c([N+](=O)[O-])c4)c(Oc4cnc5[nH]ccc5c4)c3)CC2)CO1 [Example 63]
A: 0.88

Q: Lookup: log10 of EC50 / RS4;11 cells / CC1(C)CCC(CN2CCN(c3ccc(C(=O)NS(=O)(=O)c4ccc(NCCCN5CCCC5)c([N+](=O)[O-])c4)c(Oc4cccc5[nH]c6ccccc6c45)c3)CC2)=C(c2ccc(Cl)cc2)C1 [Example 8]
A: 2.20

Q: Lookup: log10 of EC50 / RS4;11 cells / CC1(C)CCC(CN2CCN(c3ccc(C(=O)NS(=O)(=O)c4ccc(OCC5COCCO5)c([N+](=O)[O-])c4)c(Oc4ccc5[nH]ccc5c4)c3)CC2)=C(c2ccc(Cl)cc2)C1 (stereo not drawn) [Example 92]
A: 1.91

Q: Lookup: log10 of EC50 / RS4;11 cells / COC1(C)CCC(c2ccc(Cl)cc2)=C(CN2CCN(c3ccc(C(=O)NS(=O)(=O)c4ccc(NCC5CCOCC5)c([N+](=O)[O-])c4)c(Oc4cnc5[nH]ccc5c4)c3)CC2)C1 (stereo not drawn) [Example 378]
A: 0.83

Q: Lookup: log10 of EC50 / RS4;11 cells / COCCOCCN1CCOC(CNc2ccc(S(=O)(=O)NC(=O)c3ccc(N4CCN(CC5=C(c6ccc(Cl)cc6)CC(C)(C)CC5)CC4)cc3Oc3cnc4[nH]ccc4c3)cc2[N+](=O)[O-])C1 (stereo not drawn) [Example 213]
A: 0.79

* * *

- Tested on: RS4;11 cells
- protocol.notes: RS4;11 cell viability assay (CellTiter Glo)
- Type: cell-based, human
- condition.set: Homo sapiens, RS4-11, 48 h, 50,000 cells per well, 10% human serum, 48 hours; read-out: RS4; 11 EC50 Values
measured.parameter: pEC50
Note on units: pEC50 is unitless, being -log10 of a concentration expressed in mol/L.

Q: Return reported pEC50; argument: CC1(C)CCC(CN2CCN(c3ccc(C(=O)NS(=O)(=O)c4ccc(N[C@H]5CC[C@H](N6CCOCC6)CC5)c([N+](=O)[O-])c4)c(Oc4ccc5[nH]ccc5c4)c3)CC2)=C(c2ccc(Cl)cc2)C1 [Example 19]
A: 6.33

Q: Return reported pEC50; argument: COCC(C)(C)CNc1ccc(S(=O)(=O)NC(=O)c2ccc(N3CCN(CC4=C(c5ccc(Cl)cc5)CC(C)(C)CC4)CC3)cc2Oc2cnc3[nH]ccc3c2)cc1[N+](=O)[O-] [Example 155]
A: 6.23

* * *

- Test system: RS4;11 cells
- protocol.notes: RS4;11 cell viability assay (CellTiter Glo)
- Format: cell-based, human
- condition.set: Homo sapiens, RS4-11, 48 h, 50,000 cells per well, 10% human serum, 48 hours; read-out: RS4; 11 EC50 Values
What EC50 was measured for each of the following?
Please respond with the number in nM and leave the unit unwritten.

Q: Return reported EC50; argument: CN(C)CC(=O)N1CCOC(CNc2ccc(S(=O)(=O)NC(=O)c3ccc(N4CCN(CC5=C(c6ccc(Cl)cc6)CC(C)(C)CC5)CC4)cc3Oc3cnc4[nH]ccc4c3)cc2[N+](=O)[O-])C1 (stereo not shown)
A: 0.56

Q: Return reported EC50; argument: COCC1(C)CCC(c2ccc(Cl)cc2)=C(CN2CCN(c3ccc(C(=O)NS(=O)(=O)c4ccc(NCC5CCOCC5)c([N+](=O)[O-])c4)c(Oc4cnc5[nH]ccc5c4)c3)CC2)C1 (stereo not shown)
A: 9.9

Q: Return reported EC50; argument: CC1(C)CCC(CN2CCN(c3ccc(C(=O)NS(=O)(=O)c4ccc(NC[C@H]5CCCOC5)c([N+](=O)[O-])c4)c(Oc4cnc5[nH]ccc5c4)c3)CC2)=C(c2ccc(Cl)cc2)C1
A: 23.2

* * *

- System: RS4;11 cells
- protocol.notes: RS4;11 cell viability assay (CellTiter Glo)
- Type: cell-based, human
- condition.set: Homo sapiens, RS4-11, 48 h, 50,000 cells per well, 10% human serum, 48 hours; read-out: RS4; 11 EC50 Values
What EC50 was measured for each of the following?

Q: Return reported EC50; argument: CC1(C)CC(c2ccc(Cl)cc2)=C(CN2CCN(c3ccc(C(=O)NS(=O)(=O)c4cnc(OCC5CCOCC5)c(C#N)c4)c(Oc4cnc5[nH]ccc5c4)c3)CC2)CO1 [Example 35]
A: 291 nM

Q: Return reported EC50; argument: CC1(C)CCC(CN2CCN(c3ccc(C(=O)NS(=O)(=O)c4cnc(O[C@@H]5CCN(C(CF)CF)C5)c(Cl)c4)c(Oc4cnc5[nH]ccc5c4)c3)CC2)=C(c2ccc(Cl)cc2)C1 [Example 274]
A: 214 nM

Q: Return reported EC50; argument: CC1(C)CCC(CN2CCN(c3ccc(C(=O)NS(=O)(=O)c4cc(F)c(OCC5(F)CCOCC5)c(F)c4)c(Oc4cnc5[nH]ccc5c4)c3)CC2)=C(c2ccc(Cl)cc2)C1 [Example 310]
A: > 1000 nM

* * *

- System: RS4;11 cells
- protocol.notes: RS4;11 cell viability assay (CellTiter Glo);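 further: acute lymphoblastic leukemia line RS4,11, EC50 derived from percentage of viable cells after treatment relative to untreated controls, cell killing taken as a measure of Bcl-2 inhibition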
- Format: cell-based, human
- condition.set: Homo sapiens, RS4-11, 48 h, 50,000 cells per well, 10% human serum, 48 hours; read-out: RS4; 11 EC50 Values
Please respond with Condition met when measured EC50 is strictly beneath 10 nM, and with Condition not met in all other cases.

Q: Threshold test, EC50 < 10 nM: CO[C@H]1CC[C@H](CNc2ccc(S(=O)(=O)NC(=O)c3ccc(N4CCN(CC5=C(c6ccc(Cl)cc6)CC(C)(C)CC5)CC4)cc3Oc3cnc4[nH]ccc4c3)cc2[N+](=O)[O-])CC1 [Example 34]
A: Condition met

Q: Threshold test, EC50 < 10 nM: CC1(C)CCC(CN2CCN(c3ccc(C(=O)NS(=O)(=O)c4ccc(NC[C@H]5CCN(C6COC6)C5)c([N+](=O)[O-])c4)c(Oc4cnc5[nH]ccc5c4)c3)CC2)=C(c2ccc(Cl)cc2)C1 [Example 195]
A: Condition met

Q: Threshold test, EC50 < 10 nM: CN1CCC(F)(COc2ccc(S(=O)(=O)NC(=O)c3ccc(N4CCN(CC5=C(c6ccc(Cl)cc6)CC(C)(C)CC5)CC4)cc3Oc3cnc4[nH]ccc4c3)cc2Cl)CC1 [Example 283]
A: Condition not met

Q: Threshold test, EC50 < 10 nM: CC1(C)CCC(CN2CCN(c3ccc(C(=O)NS(=O)(=O)c4cnc(OCC5CCOCC5)c(C(N)=O)c4)c(Oc4cnc5[nH]ccc5c4)c3)CC2)=C(c2ccc(Cl)cc2)C1 [Example 46]
A: Condition not met

Q: Threshold test, EC50 < 10 nM: CC1(C)CCC(CN2CCN(c3ccc(C(=O)NS(=O)(=O)c4ccc(N[C@@H]5CCN(C6CCOC(C)(C)C6)C5)c([N+](=O)[O-])c4)c(Oc4cnc5[nH]ccc5c4)c3)CC2)=C(c2ccc(Cl)cc2)C1 (stereo partly drawn) [Example 131]
A: Condition not met

Q: Threshold test, EC50 < 10 nM: CC1(C)CCC(CN2CCN(c3ccc(C(=O)NS(=O)(=O)c4ccc(NCC5CCOCC5)c([N+](=O)[O-])c4)c(Oc4cnc5[nH]ccc5c4)c3)CC2)=C(c2ccc(Cl)cc2)C1 [Example 5]
A: Condition not met
